Target: cloned human 5-HT1A-receptors (Homo sapiens)
Sequence (P08908 1-422): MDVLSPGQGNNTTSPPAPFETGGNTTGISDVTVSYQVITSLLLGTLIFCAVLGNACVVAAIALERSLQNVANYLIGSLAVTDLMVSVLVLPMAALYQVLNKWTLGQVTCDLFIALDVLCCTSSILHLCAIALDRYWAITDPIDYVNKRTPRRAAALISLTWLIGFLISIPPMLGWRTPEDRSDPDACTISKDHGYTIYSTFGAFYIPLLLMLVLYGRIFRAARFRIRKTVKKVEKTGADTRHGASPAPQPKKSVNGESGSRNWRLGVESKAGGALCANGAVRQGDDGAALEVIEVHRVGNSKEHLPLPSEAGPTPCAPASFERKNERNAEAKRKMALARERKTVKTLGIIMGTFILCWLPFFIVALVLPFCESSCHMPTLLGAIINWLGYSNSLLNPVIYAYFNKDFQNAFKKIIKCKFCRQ
# maps each entry to its pIC50
# pIC50 is unitless: minus log10 of the molar concentration; print number only

Sample records with pIC50:
STRUCTURE STRING: Fc1cc(F)c(OCCCN2CCN(c3cccc4[nH]ccc34)CC2)c(Br)c1
pIC50: 8.85

STRUCTURE STRING: Fc1cc(Cl)c(OCCCCN2CCN(c3cccc4[nH]ccc34)CC2)c(Cl)c1
pIC50: 8.62

STRUCTURE STRING: Clc1cccc(Cl)c1SCCCCN1CCN(c2cccc3[nH]ccc23)CC1
pIC50: 8.15

Jot down pIC50 (cloned human 5-HT1A-receptors (Homo sapiens)) of `Clc1ccccc1OCCCN1CCN(c2cccc3[nH]ccc23)CC1` .
7.92

Jot down pIC50 (cloned human 5-HT1A-receptors (Homo sapiens)) of `N#Cc1cc(Br)c(OCCCN2CCN(c3cccc4[nH]ccc34)CC2)c(Br)c1` .
9.14

Jot down pIC50 (cloned human 5-HT1A-receptors (Homo sapiens)) of `Fc1cc(Br)c(OCCCCN2CCN(c3cccc4[nH]ccc34)CC2)c(Br)c1` .
8.17

Jot down pIC50 (cloned human 5-HT1A-receptors (Homo sapiens)) of `Fc1ccc(SCCCN2CCN(c3cccc4[nH]ccc34)CC2)c(Cl)c1` .
8.03

The measurements presented in this section are drawn from patent US20030050307A1.
